Where do the numbers come from? From patent US20210355105A1.

ASSAY EXPLANATION: Pharmacokinetics assay in MiaPaca 2 tumor-bearing mice (plasma, tumor tissue, intestine)
Type: in vivo
APPLIED CONDITIONS: female, mouse, Colon, oral 6 mg/kg
ATTRIBUTE MEASURED: Tmax (h)
Numbers only; they are read as h.

Q. Fill in the blank: the reported Tmax of Nc1nc(N2CCC3(CC2)Cc2ccccc2[C@H]3N)c(F)nc1Sc1ccnc(N)c1Cl is ____.
A. 4

----------
Reported Cmax values follow for various compounds
ASSAY EXPLANATION: Pharmacokinetics assay in rats, oral administration
Format: in vivo
APPLIED CONDITIONS: rat; male SD rats, oral 5 mg/kg, plasma
Give your result as the value with the unit written after it.

Reference set, count: 4
> print(dat)
                            chemical.string   measured
1  Cc1nc(N2CCC3(CC2)Cc2ncsc2[C@H]3N)c(CO)nc1Sc1ccnc(N)c1Cl  189 ng/mL
2  Nc1nccc(Sc2cnc(N3CCC4(CC=C(C5CC5)[C@H]4N)CC3)cn2)c1Cl  247 ng/mL
3  Nc1nc(N2CCC3(CC2)Cc2ccccc2[C@H]3N)c(F)nc1Sc1ccnc(N)c1Cl  201 ng/mL
4  Nc1nc(N2CCC3(CC2)Cc2ncsc2[C@H]3N)c(F)nc1Sc1ccnc(N)c1Cl  614 ng/mL

Now take the following compound into account.
Q. Fill in the blank: the reported Cmax of Nc1nc(N2CCC3(CC2)Cc2ncccc2[C@H]3N)c(F)nc1Sc1ccnc(N)c1Cl is ____.
A. 666 ng/mL

----------
ASSAY EXPLANATION: Pharmacokinetics assay in MiaPaca 2 tumor-bearing mice (plasma, tumor tissue, intestine)
Format: in vivo
APPLIED CONDITIONS: female, mouse, Colon, oral 6 mg/kg
ATTRIBUTE MEASURED: half-life (h)
Numbers only; they are read as h.

Q. Fill in the blank: the reported half-life of Nc1nc(N2CCC3(CC2)Cc2ccccc2[C@H]3N)c(F)nc1Sc1ccnc(N)c1Cl is ____.
A. 2.8

----------
ASSAY EXPLANATION: Pharmacokinetics assay in MiaPaca 2 tumor-bearing mice (plasma, tumor tissue, intestine)
Assay type: in vivo
APPLIED CONDITIONS: female, mouse, Ileum, oral 6 mg/kg
ATTRIBUTE MEASURED: Tmax (h)
Numbers only; they are read as h.

Q. Fill in the blank: the reported Tmax of Nc1nc(N2CCC3(CC2)Cc2ccccc2[C@H]3N)c(F)nc1Sc1ccnc(N)c1Cl [Example 179] is ____.
A. 2

----------
ASSAY EXPLANATION: Pharmacokinetics assay in MiaPaca 2 tumor-bearing mice (plasma, tumor tissue, intestine)
Type: in vivo
APPLIED CONDITIONS: female, mouse, Plasma, oral 6 mg/kg
ATTRIBUTE MEASURED: half-life (h)
Numbers only; they are read as h.

Q. Fill in the blank: the reported half-life of Nc1nc(N2CCC3(CC2)Cc2ccccc2[C@H]3N)c(F)nc1Sc1ccnc(N)c1Cl is ____.
A. 4.8

----------
ASSAY EXPLANATION: Pharmacokinetics assay in rats, single intravenous injection
Format: in vivo
APPLIED CONDITIONS: rat, iv; male SD rats, i.v. 1 mg/kg, plasma; read-out: Vss
ATTRIBUTE MEASURED: Vd (L/kg)
Numbers only; they are read as L/kg.

Q. Fill in the blank: the reported Vd of Nc1nc(N2CCC3(CC2)Cc2ccccc2[C@H]3N)c(F)nc1Sc1ccnc(N)c1Cl [Example 179] is ____.
A. 7

----------
ASSAY EXPLANATION: Pharmacokinetics assay in MiaPaca 2 tumor-bearing mice (plasma, tumor tissue, intestine)
Format: in vivo
APPLIED CONDITIONS: female, mouse, Plasma, oral 6 mg/kg
ATTRIBUTE MEASURED: MRT (h)
Numbers only; they are read as h.

Q. Fill in the blank: the reported MRT of Nc1nc(N2CCC3(CC2)Cc2ccccc2[C@H]3N)c(F)nc1Sc1ccnc(N)c1Cl [Example 179] is ____.
A. 7.5

----------
ASSAY EXPLANATION: Pharmacokinetics assay in rats, oral administration
Type: in vivo
APPLIED CONDITIONS: rat; male SD rats, oral 5 mg/kg, plasma
ATTRIBUTE MEASURED: MRT (h)
Numbers only; they are read as h.

Reference set, count: 3
> print(dat)
                            chemical.string  unit.symbol  measured
1  Nc1nccc(Sc2cnc(N3CCC4(CC=C(C5CC5)[C@H]4N)CC3)cn2)c1Cl            h      9.24
2  Cc1nc(N2CCC3(CC2)Cc2ncsc2[C@H]3N)c(CO)nc1Sc1ccnc(N)c1Cl            h      5.78
3  Nc1nc(N2CCC3(CC2)Cc2ccccc2[C@H]3N)c(F)nc1Sc1ccnc(N)c1Cl            h      15.2

Q. Fill in the blank: the reported MRT of Nc1nc(N2CCC3(CC2)Cc2ncsc2[C@H]3N)c(F)nc1Sc1ccnc(N)c1Cl is ____.
A. 5.84

Q. Same read-out for Nc1nc(N2CCC3(CC2)Cc2ncccc2[C@H]3N)c(F)nc1Sc1ccnc(N)c1Cl ?
A. 5.67

----------
ASSAY EXPLANATION: Pharmacokinetics assay in mice, oral administration
Format: in vivo
APPLIED CONDITIONS: mouse; male Balb/c mice, oral 5 mg/kg, plasma
ATTRIBUTE MEASURED: Cmax (ng/mL)
Numbers only; they are read as ng/mL.

Reference set, count: 4
> print(dat)
                            chemical.string  attribute.measured  unit.symbol  measured
1  Nc1nc(N2CCC3(CC2)Cc2ncccc2[C@H]3N)c(F)nc1Sc1ccnc(N)c1Cl                Cmax        ng/mL       996
2  Cc1nc(N2CCC3(CC2)Cc2ncsc2[C@H]3N)c(CO)nc1Sc1ccnc(N)c1Cl                Cmax        ng/mL       475
3  Nc1nc(N2CCC3(CC2)Cc2ccccc2[C@H]3N)c(F)nc1Sc1ccnc(N)c1Cl                Cmax        ng/mL       179
4  Nc1nc(N2CCC3(CC2)Cc2ncsc2[C@H]3N)c(F)nc1Sc1ccnc(N)c1Cl                Cmax        ng/mL      1380

Now take the following compound into account.
Q. Fill in the blank: the reported Cmax of Nc1nccc(Sc2cnc(N3CCC4(CC=C(C5CC5)[C@H]4N)CC3)cn2)c1Cl is ____.
A. 436

----------
Reported MRT values follow for various molecules
ASSAY EXPLANATION: Pharmacokinetics assay in mice, oral administration
Assay type: in vivo
APPLIED CONDITIONS: mouse; male Balb/c mice, oral 5 mg/kg, plasma
Numbers only; they are read as h.

> print(dat)
                            chemical.string  measured
1  Cc1nc(N2CCC3(CC2)Cc2ncsc2[C@H]3N)c(CO)nc1Sc1ccnc(N)c1Cl      4.34
2  Nc1nc(N2CCC3(CC2)Cc2ccccc2[C@H]3N)c(F)nc1Sc1ccnc(N)c1Cl      7.92
3  Nc1nc(N2CCC3(CC2)Cc2ncccc2[C@H]3N)c(F)nc1Sc1ccnc(N)c1Cl      5.15

Q. Fill in the blank: the reported MRT of Nc1nc(N2CCC3(CC2)Cc2ncsc2[C@H]3N)c(F)nc1Sc1ccnc(N)c1Cl is ____.
A. 5.07

Q. Same read-out for Nc1nccc(Sc2cnc(N3CCC4(CC=C(C5CC5)[C@H]4N)CC3)cn2)c1Cl ?
A. 9.08

----------
Tested on: human pancreatic cancer cell MiaPaca 2 xenograft
ASSAY EXPLANATION: Tumor inhibition test on MiaPaca 2 xenograft model
Type: in vivo, Balb/c nude mice
APPLIED CONDITIONS: 6 mg/kg QD × 3 w, intragastric, Day 21
ATTRIBUTE MEASURED: Tumor volume (Mean ± SD) Day 21
Give your result as the value with the unit written after it.

Reference set, count: 3
> print(dat)
                                   compound       measured
1  Nc1nc(N2CCC3(CC=C(C4CC4)[C@H]3N)CC2)cnc1Sc1ccnc(N)c1Cl [Example 143]  196 ± 62 mm^3
2  Cc1nc(Sc2ccnc(N)c2Cl)c(N)nc1N1CCC2(CC1)Cc1ccccc1[C@H]2N [Example 96]  183 ± 70 mm^3
3  Cc1nc(N2CCC3(CC2)Cc2ncsc2[C@H]3N)c(CO)nc1Sc1ccnc(N)c1Cl [Example 171]  198 ± 70 mm^3

Now take the following compound into account.
Q. Fill in the blank: the reported Tumor volume (Mean ± SD) Day 21 of Nc1nc(N2CCC3(CC2)Cc2ccccc2[C@H]3N)c(F)nc1Sc1ccnc(N)c1Cl [Example 179] is ____.
A. 227 ± 37 mm^3
